Below, each entry is listed alongside its reported selectivity ratio.
# Method Notes: Selectivity index, ratio of CC50 for cytotoxicity against human MT4 cells assessed as reduction in cell viability to EC50 for antiviral activity against human MT4 cells assessed as protection against virus-induced cytopathic effect
# Format: toxicity, cell-based
# Assay Conditions: read-out: Ratio CC50/EC50

# count of solved cases: 4
Cc1cc(/C=C/C#N)cc(C)c1Oc1nc(Nc2ccc(N3CCN(S(C)(=O)=O)CC3)c(F)c2)ncc1-c1ccc(F)nc1 | > 11600
Cc1cc(/C=C/C#N)cc(C)c1Oc1nc(Nc2ccc(N3CCS(=O)(=O)CC3)c(F)c2)ncc1-c1ccc(F)nc1 | > 221
Cc1cc(/C=C/C#N)cc(C)c1Oc1nc(Nc2ccc(N3CCN(S(C)(=O)=O)CC3)c(C#N)c2)ncc1-c1cncnc1 | > 24200
Cc1cc(/C=C/C#N)cc(C)c1Oc1nc(Nc2ccc(N3CCS(=O)(=O)CC3)c(C#N)c2)ncc1-c1ccc(F)nc1 | > 7830

Any idea what selectivity ratio was measured for Cc1cc(/C=C/C#N)cc(C)c1Oc1nc(Nc2ccc(N3CCS(=O)(=O)CC3)c(F)c2)ncc1-c1cncnc1 ? > 40500

====

# System: Human immunodeficiency virus 1
# Method Notes: Antiviral activity against wild type HIV-1 IIIB infected in human MT4 cells assessed as protection against virus-induced cytopathic effect incubated for 5 days by MTT assay
# Assay type: functional, organism-based
# Assay Conditions: Human immunodeficiency virus 1, IIIB, MT4, 120 h
Reported Endpoint: log10(EC50) (log10 of the value in nM)
Heads up: the numbers are on a log10 scale; they represent EC50 in nM.

Recorded results for 5 compounds are shown here.
Cc1cc(/C=C/C#N)cc(C)c1Oc1nc(Nc2ccc(N3CCN(S(C)(=O)=O)CC3)c(C#N)c2)ncc1-c1ccc(N)nc1 | 0.81
Cc1cc(/C=C/C#N)cc(C)c1Oc1nc(Nc2ccc(N3CCS(=O)(=O)CC3)c(C#N)c2)ncc1-c1cccnc1 | 1.20
Cc1cc(/C=C/C#N)cc(C)c1Oc1nc(Nc2ccc(N3CCS(=O)(=O)CC3)c(C#N)c2)ncc1-c1cncnc1 | 0.96
Cc1cc(/C=C/C#N)cc(C)c1Oc1nc(Nc2ccc(N3CCS(=O)(=O)CC3)c(F)c2)ncc1-c1cnc(F)nc1 | 1.11
Cc1cc(/C=C/C#N)cc(C)c1Oc1nc(Nc2ccc(N3CCS(=O)(=O)CC3)c(C#N)c2)ncc1-c1cnc(F)nc1 | 2.34

Which log10(EC50) reading was recorded for the compound Cc1cc(/C=C/C#N)cc(C)c1Oc1nc(Nc2ccc(N3CCS(=O)(=O)CC3)c(C#N)c2)ncc1-c1ccc(N)nc1 ? 1.61

Given the entry O=C1Nc2ccc(Cl)cc2[C@@](C#CC2CC2)(C(F)(F)F)O1 [EFAVIRENZ] , report its measured log10(EC50). 0.72

Could you tell me which log10(EC50) is on file for Cc1cc(/C=C/C#N)cc(C)c1Oc1nc(Nc2ccc(N3CCN(S(C)(=O)=O)CC3)c(F)c2)ncc1-c1cnc(N)nc1 ? 0.86

Requested read-out: log10(EC50). Entry: Cc1cc(/C=C/C#N)cc(C)c1Oc1nc(Nc2ccc(N3CCS(=O)(=O)CC3)c(F)c2)ncc1-c1cccnc1 1.23

Need log10(EC50) of Cc1cc(/C=C/C#N)cc(C)c1Oc1nc(Nc2ccc(N3CCS(=O)(=O)CC3)c(C#N)c2)ncc1-c1cnc(N)nc1 , thanks. 1.49

Please give the measured log10(EC50) for this compound: Cc1cc(/C=C/C#N)cc(C)c1Oc1nc(Nc2ccc(N3CCN(S(C)(=O)=O)CC3)c(C#N)c2)ncc1-c1cccnc1 0.90

# log10(EC50) lookup, item Cc1cc(/C=C/C#N)cc(C)c1Oc1nc(Nc2ccc(N3CCN(S(C)(=O)=O)CC3)c(F)c2)ncc1-c1ccc(F)nc1 1.23

Find the recorded log10(EC50) belonging to Cc1cc(/C=C/C#N)cc(C)c1Oc1nc(Nc2ccc(N3CCN(S(C)(=O)=O)CC3)c(C#N)c2)ncc1-c1ccc(F)nc1 and report it. 1.41

For the compound Cc1cc(/C=C/C#N)cc(C)c1Oc1nc(Nc2ccc(N3CCN(S(C)(=O)=O)CC3)c(F)c2)ncc1-c1ccc(N)nc1 , what log10(EC50) is on record? 0.76
